- Tested on: A549 cells
- procedureSummary: MTT cytotoxicity assay
- Type: cell-based, human
- testSettings: normalized to naïve control, ± SEM
Binary label based on Cell Viability (%) 24 h Dosing with cut-off 70%: below gives rule met, not below gives rule not met.

Answered examples (3):
- smilesRecord: "NCCCNC(=O)[C@H](Cc1ccccc1)NC(=O)OCC1c2ccccc2-c2ccccc21"
  classLabel: "rule not met"
- smilesRecord: "NCCCNC(=O)[C@H](Cc1cccc(F)c1)NC(=O)OCC1c2ccccc2-c2ccccc21"
  classLabel: "rule not met"
- smilesRecord: "NCCCNC(=O)[C@H](Cc1ccccc1)NC(=O)Cc1ccc2ccccc2c1"
  classLabel: "rule met"

From here, focus on the item given below.
Exercise: Input "CCCCCCC(=O)N[C@@H](Cc1ccccc1)C(=O)NCCCN" ; condition: Cell Viability (%) 24 h Dosing strictly below 70%. Does it hold?
Solution: rule met

FYI, the data here is from patent US20260167972A1.
